meta.source: PubChem BioAssay AID1000

# pIC50 per entry
- Assayed Target: mevalonate kinase (Streptococcus pneumoniae D39)
- Method Summary: S. pneumoniae MK inhibition retest, confirmation, biochemical, cuvette format, NADH absorbance 340 nm (AID 1000)
- Condition Context: recombinant MK, PK/LDH coupled NADH absorbance 340 nm
Remember, pIC50 is on a log scale: it is -log10 of the molar concentration.

Take a look at these entries with their results.
O=C(NCc1ccco1)c1ccccc1-n1sc2ccccc2c1=O = 6.24
CCCNC(=O)c1ccc(-n2sc3ccccc3c2=O)cc1 = 6.87
O=C(NCC1CC1)c1ccc(-n2sc3ccccc3c2=O)cc1 = 6.75

Give recorded pIC50 with mevalonate kinase (Streptococcus pneumoniae D39) for the following molecule: O=C(c1cccc(-n2sc3ccccc3c2=O)c1)N1CCCC1
6.64

---

- Assayed Target: mevalonate kinase (Streptococcus pneumoniae D39)
- Method Summary: S. pneumoniae MK inhibition retest, confirmation, biochemical, cuvette format, NADH absorbance 340 nm (AID 1000)
- Condition Context: recombinant MK, PK/LDH coupled NADH absorbance 340 nm
Readout Name: IC50

Take a look at these entries with their results.
CCCNC(=O)c1ccccc1-n1sc2ccccc2c1=O = 381 nM
CN(C)C(=O)c1ccccc1-n1sc2ccccc2c1=O = 754 nM

Which IC50 is reported for this molecule? CCCNC(=O)c1cccc(-n2sc3ccccc3c2=O)c1
277 nM

Which IC50 is reported for this molecule? O=c1c2ccccc2nc2n1CCC2NC(c1ccccc1)c1ccccc1 (centres undefined)
17300 nM

---

- Assayed Target: mevalonate kinase (Streptococcus pneumoniae D39)
- Method Summary: S. pneumoniae MK inhibition retest, confirmation, biochemical, cuvette format, NADH absorbance 340 nm (AID 1000)
- Condition Context: recombinant MK, PK/LDH coupled NADH absorbance 340 nm; at 100 µM; hits give high values
The source made the active and inactive calls.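 How the source made its calls: active means over 20% inhibition at the single screening dose, then confirmed by dose response with half-maximal potency of 40 µM or better; inactive means the rest.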
Readout Name: inhibition

Take a look at these entries with their results.
COc1cccc(CCNC2CCn3c2nc2ccccc2c3=O)c1 (centres undefined) = inactive
O=c1c2ccccc2nc2n1CCC2SCCc1ccccc1 (centres undefined) = inactive
O=c1c2ccc(F)cc2nc2n1CCC2 = inactive
O=c1c2cc(Cl)ccc2nc2n1CCC2 = inactive
O=c1c2c(F)cccc2nc2n1CCC2 = inactive
O=c1c2c(Cl)cccc2nc2n1CCC2 = inactive
COc1ccc(CSC2CCn3c2nc2ccccc2c3=O)cc1 (centres undefined) = inactive
COc1cccc2c(=O)n3c(nc12)CCC3 = inactive

Query compound follows.
Which inhibition is reported for this compound? O=c1c2ccccc2nc2n1CCC2SCc1ccccc1 (centres undefined)
inactive
